target.of.assay: human D3R (Homo sapiens)
Sequence (P35462 whole entry): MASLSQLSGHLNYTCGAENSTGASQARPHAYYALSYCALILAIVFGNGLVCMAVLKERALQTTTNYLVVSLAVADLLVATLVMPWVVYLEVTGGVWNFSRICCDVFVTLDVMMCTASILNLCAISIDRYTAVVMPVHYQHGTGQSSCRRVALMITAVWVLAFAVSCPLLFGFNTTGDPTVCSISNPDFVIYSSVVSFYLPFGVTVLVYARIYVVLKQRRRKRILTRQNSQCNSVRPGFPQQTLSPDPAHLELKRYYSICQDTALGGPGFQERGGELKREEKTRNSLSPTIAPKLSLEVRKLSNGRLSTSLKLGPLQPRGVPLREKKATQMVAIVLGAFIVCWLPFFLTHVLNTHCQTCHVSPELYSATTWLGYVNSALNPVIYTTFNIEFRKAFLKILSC
assay: [3H]-spiperone filtration binding assay on membranes from CHO–hDRD3 cells
cond: read-out: Inhibition Rate at 10 µM
experimental.endpoint: inhibition at 10 µM (%)

Record Cc1cc(N2CCC(C(=O)N[C@@H]3CCCc4ccccc43)CC2)n2nc(-c3ccccc3)cc2n1 . Reported inhibition at 10 µM: 94.8

// field: inhibition at 10 µM; key: Cc1ccc(-c2c3c(=O)n(C)c(=O)n(C)c3c3n2C(C)(C)CO[C@H]3c2ccc(C)cc2O)cc1 ; value = 99.3

Reported inhibition at 10 µM for Cc1nc(Nc2ccc(NC(=O)Nc3ccc4c(c3)OCCO4)cc2)cc(NC2CCCCC2)n1 was 93.6

Input Cc1ccc(CNC(=O)c2ccc3c(=O)n(-c4ccc(C)cc4)c(N4CCCC4)nc3c2)cc1 . Output inhibition at 10 µM: 99.5

Cc1ccc(SCc2nc(-c3ccc(C(=O)Nc4ccc5c(c4)OCO5)cc3)oc2C)cc1 yielded inhibition at 10 µM of 96.9

====

Quick record: IC50, UniProtKB P35462.
experimental.endpoint: IC50 (nM)

Form: molecule = Cc1ccc(-c2c3c(=O)n(C)c(=O)n(C)c3c3n2C(C)(C)CO[C@H]3c2ccc(C)cc2O)cc1 ; IC50 = 1250

Measured IC50, Cc1cc(N2CCC(C(=O)N[C@@H]3CCCc4ccccc43)CC2)n2nc(-c3ccccc3)cc2n1 : 1490
